# test system: human collagenase-3 (catalytic domain) (Homo sapiens)
# Construct: ubiquitin (cleaved yes); made in house; host or cells: bacterial expression system (analogous to matrilysin)
# assay comment: IC50 for inhibition of the catalytic domain of human collagenase-3, fluorogenic peptide cleavage assay (Coll-3)
# Assay type: biochemical
readout kind: IC50 (nM)
Please respond with the number in nM and leave the unit unwritten.

Q: Form field - read-out: IC50; system: human collagenase-3 (catalytic domain) (Homo sapiens); submitted item: O=C1NC(=O)C(COCc2ccccc2)(c2ccc(Oc3ccccc3)cc2)C(=O)N1
A: 47

====

For each of the molecules below, state its IC50.
# test system: gelatinase-B (human neutrophil gelatinase, 95 kDa gelatinase) (Homo sapiens, UniProt P14780)
# Construct: made in house; host or cells: NSO-cells (purified from conditioned media)
# Sequence (P14780 107-707 limits assumed): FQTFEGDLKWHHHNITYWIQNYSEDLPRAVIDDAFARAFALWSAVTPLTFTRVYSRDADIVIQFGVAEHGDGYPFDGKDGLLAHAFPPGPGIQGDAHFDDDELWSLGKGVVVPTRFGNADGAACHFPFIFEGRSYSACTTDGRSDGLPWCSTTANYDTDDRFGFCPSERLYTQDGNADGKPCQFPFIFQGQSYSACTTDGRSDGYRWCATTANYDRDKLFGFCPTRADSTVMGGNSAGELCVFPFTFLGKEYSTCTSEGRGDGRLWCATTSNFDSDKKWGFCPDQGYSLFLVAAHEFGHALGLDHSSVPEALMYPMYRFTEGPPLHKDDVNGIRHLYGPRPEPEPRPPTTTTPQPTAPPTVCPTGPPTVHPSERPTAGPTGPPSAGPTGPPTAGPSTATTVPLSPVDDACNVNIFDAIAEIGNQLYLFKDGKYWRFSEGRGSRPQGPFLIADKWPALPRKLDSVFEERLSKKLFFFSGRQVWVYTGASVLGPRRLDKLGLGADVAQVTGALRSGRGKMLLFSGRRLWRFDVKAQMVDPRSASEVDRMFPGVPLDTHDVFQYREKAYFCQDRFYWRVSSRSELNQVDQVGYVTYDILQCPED
# assay comment: IC50 for inhibition of gelatinase-B (human neutrophil gelatinase, 95 kDa), fluorogenic peptide cleavage assay (GelB)
# Type: biochemical
Please respond with the number in nM and leave the unit unwritten.

Q: Param item = CCCCCCC1(c2ccc(Oc3ccccc3)cc2)C(=O)NC(=O)NC1=O ; retrieve measured IC50.
A: 50

Q: Param item = O=C1NC(=O)C(COCc2ccccc2)(c2ccc(Oc3ccccc3)cc2)C(=O)N1 ; retrieve measured IC50.
A: 23

====

# test system: gelatinase-A (human 72 kDa gelatinase) (Homo sapiens)
# Construct: endogenous in cells; host or cells: fetal lung fibroblasts (purified from conditioned media)
# Sequence (P08253 110-660): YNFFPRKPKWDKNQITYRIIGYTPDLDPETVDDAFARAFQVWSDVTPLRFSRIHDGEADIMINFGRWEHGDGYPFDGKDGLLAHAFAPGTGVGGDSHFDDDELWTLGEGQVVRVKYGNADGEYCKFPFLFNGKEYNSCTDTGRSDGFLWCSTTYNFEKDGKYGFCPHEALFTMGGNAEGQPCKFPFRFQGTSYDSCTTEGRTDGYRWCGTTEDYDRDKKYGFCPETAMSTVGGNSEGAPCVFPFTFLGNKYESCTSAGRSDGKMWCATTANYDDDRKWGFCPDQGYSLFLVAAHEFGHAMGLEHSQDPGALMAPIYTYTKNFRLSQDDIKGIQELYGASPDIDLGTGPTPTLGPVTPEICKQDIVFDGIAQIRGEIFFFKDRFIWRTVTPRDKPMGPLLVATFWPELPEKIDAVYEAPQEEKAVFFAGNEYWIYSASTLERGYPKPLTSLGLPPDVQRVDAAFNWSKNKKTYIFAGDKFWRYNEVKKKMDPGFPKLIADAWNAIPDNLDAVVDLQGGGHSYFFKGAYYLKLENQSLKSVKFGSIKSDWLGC
# assay comment: IC50 for inhibition of gelatinase-A (human 72 kDa gelatinase), fluorogenic peptide cleavage assay (GelA)
# Format: biochemical
# setup conditions: pH 7.5, 37° C., 10 μM substrate, 0.8 nM enzyme, 5% DMSO; read-out: IC50 GelA
readout kind: pIC50
To interpret pIC50, take it as minus log10 of a concentration measured in moles per litre.

Q: Param item = O=C1NC(=O)C(CCO)(c2ccc(Oc3ccccc3)cc2)C(=O)N1 [D] ; retrieve measured pIC50.
A: 7.23

====

# test system: human collagenase-3 (catalytic domain) (Homo sapiens, UniProt P45452)
# Construct: ubiquitin (cleaved yes); made in house; host or cells: bacterial expression system (analogous to matrilysin)
# assay comment: IC50 for inhibition of the catalytic domain of human collagenase-3, fluorogenic peptide cleavage assay (Coll-3)
# Format: biochemical
# setup conditions: catalytic domain; pH 7.5, 37° C., 10 μM substrate, 0.4 nM enzyme, 5% DMSO; read-out: IC50 Coll-3
For each of the compounds below, state its pIC50.
To interpret pIC50, take it as minus log10 of a concentration measured in moles per litre.

Q: Param item = CC1(c2ccc(Oc3ccccc3)cc2)C(=O)NC(=O)NC1=O [A] ; retrieve measured pIC50.
A: 7.19

Q: Param item = CCCCCCC1(c2ccc(Oc3ccccc3)cc2)C(=O)NC(=O)NC1=O [B] ; retrieve measured pIC50.
A: 7.11

====

# test system: gelatinase-B (human neutrophil gelatinase, 95 kDa gelatinase) (Homo sapiens)
# Construct: made in house; host or cells: NSO-cells (purified from conditioned media)
# assay comment: IC50 for inhibition of gelatinase-B (human neutrophil gelatinase, 95 kDa), fluorogenic peptide cleavage assay (GelB)
# Type: biochemical
# setup conditions: pH 7.5, 37° C., 10 μM substrate, 0.5 nM enzyme, 5% DMSO; read-out: IC50 GelB
readout kind: IC50 (nM)
Please respond with the number in nM and leave the unit unwritten.

Q: Param item = CC1(c2ccc(Oc3ccccc3)cc2)C(=O)NC(=O)NC1=O ; retrieve measured IC50.
A: 52
